# condition_summary: pampa; 60.0 min; 50.0 µM
Output: class label from Papp. Mapping: zone 1: < 20 ×10⁻⁶ cm/s; zone 2: ≥ 20 ×10⁻⁶ cm/s and < 100 ×10⁻⁶ cm/s; zone 3: ≥ 100 ×10⁻⁶ cm/s

Examples with answers:
> print(dat)
                                    molecule  label.class
 1  COc1cc2c(Nc3ccc(Cl)c(Cl)c3F)ncnc2cc1OCC1C[C@@H]2CN(C)C[C@@H]2C1 (stereo partly specified)       zone 3
 2  Cc1cc(CNC(=O)c2ccc3c(c2)n(CC2CC2)c(=O)n3C2CCCCC2)on1       zone 3
 3  CC(=O)c1cc(C(=O)N[C@@H](C)Cn2ccc(-c3ccc(C#N)c(Cl)c3)n2)[nH]n1       zone 3
 4  N=c1c2c(-c3ccccc3)c(-c3ccccc3)n(CCc3ccccc3)c2ncn1CCCCCO       zone 3
 5        O=C(O)Cc1ccc2c(c1)C(=O)c1ccccc1CO2       zone 1
 6  O=C1Nc2ccc(C(=O)c3ccco3)cc2/C1=C/c1cc(Cl)c(O)c(Cl)c1       zone 2
 7  C=Cc1c(C)c2cc3nc(c(CC(=O)N[C@@H](CC(=O)O)C(=O)O)c4nc(cc5[nH]c(cc1[nH]2)c(C)c5CC)C(C)=C4C(=O)O)[C@@H](CCC(=O)O)[C@@H]3C       zone 1
 8         O=C(NO)c1cnc(NC2(c3ccccc3)CC2)nc1       zone 1
 9  CNC(=O)c1cc(Oc2ccc(NC(=O)Nc3cc(C(C)(C)C)nn3-c3ccc4ncccc4c3)c(F)c2)ccn1       zone 3
10  COc1cc(-c2nc(Cn3nnc(C(=O)Nc4cc(C)cc(C)c4)c3C)c(C)o2)cc(OC)c1OC       zone 1

Returns: class label. Input: N=c1c2c(-c3ccccc3)c(-c3ccccc3)n(Cc3ccccc3)c2ncn1Cc1ccc2c(c1)OCO2
zone 1

Form: Item = N=c1c2c(-c3ccccc3)cn(Cc3ccccc3)c2ncn1CCCCCO ; Class = ?
zone 2

Would you mind sorting C[C@@H]1COCCN1c1cc(C2(S(C)(=N)=O)CC2)nc(-c2ccnc3[nH]ccc23)n1 (stereo partly specified) into the appropriate category?
zone 2
